Could you please report measured IC50 for the items listed next?
assay.system: Nuclear receptor subfamily 0 group B member 1 (Homo sapiens)
Sequence (P51843 whole entry): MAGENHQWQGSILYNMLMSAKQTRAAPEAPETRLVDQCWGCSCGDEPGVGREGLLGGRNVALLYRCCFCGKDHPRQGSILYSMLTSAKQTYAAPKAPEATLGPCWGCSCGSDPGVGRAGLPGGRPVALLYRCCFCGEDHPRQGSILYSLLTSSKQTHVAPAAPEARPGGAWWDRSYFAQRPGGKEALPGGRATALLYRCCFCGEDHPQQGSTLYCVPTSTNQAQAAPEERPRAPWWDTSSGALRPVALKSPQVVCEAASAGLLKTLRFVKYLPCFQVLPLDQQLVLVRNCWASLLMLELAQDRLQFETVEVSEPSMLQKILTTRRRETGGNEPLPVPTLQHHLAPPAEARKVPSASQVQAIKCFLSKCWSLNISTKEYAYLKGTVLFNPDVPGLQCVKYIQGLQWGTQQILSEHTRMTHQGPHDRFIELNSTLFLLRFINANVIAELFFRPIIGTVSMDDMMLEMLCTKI
test.method.notes: Luminescence-based cell-based high throughput dose response assay for inhibitors of the orphan nuclear receptor subfamily 0, group B, member 1 (DAX1; NR0B1). [Related pubchem assays (depositor defined):AID504766, AID504790]
Type: functional
The source made the active and inactive calls. The rule behind the calls is not given here.

Query: Retrieve IC50 measured for Cc1cc(C)c2c(N)c(C(=O)Nc3ccc(C)c(C)c3)sc2n1 and print it.
Result: > 67.6 µM (inactive)

Query: Retrieve IC50 measured for CCSc1nnc(NC(=O)C2CC2c2ccccc2)s1 (centres undefined) and print it.
Result: > 67.5 µM (inactive)

Query: Retrieve IC50 measured for CN(C)/C=C(/C(=O)c1ccc(Cl)c(Cl)c1)c1nnnn1-c1ccccc1 and print it.
Result: > 67.5 µM (inactive)

Query: Retrieve IC50 measured for CCOc1cccc(C(=O)NC2=NCCS2)c1 and print it.
Result: > 67.5 µM (inactive)
